# test.protocol: Mean residence time (0 to t) in Sprague-Dawley rat blood at 1 mg/kg, iv measured for 24 hrs by LC-MS/MS analysis
# Assay type: ADME, organism-based
For each record, write down the corresponding MRT last at 24 h.
Form entry: value (h) — number only.

Task item: Let me know recorded MRT last at 24 h for O=C(Nc1cc(Cl)nc(Cl)c1)Nc1cc(Cl)nc(Cl)c1 , thanks.
Reply: 6

Task item: Let me know recorded MRT last at 24 h for Cc1nn(C)c2nc(NNC(=O)Nc3cc(Cl)nc(Cl)c3)cc(C(C)C)c12 , thanks.
Reply: 0.9

====

# test.protocol: Reversal of 5-FU resistance against human SW620/5-FU cells assessed as inhibition of cell proliferation measured after 72 hrs in presence of 5-FU by MTT assay
# Type: functional, cell-based
pEC50: −log10 of the molar value.
Answer 0 if pEC50 is under 4, and 1 if it is 4 or more.

Task item: Is pEC50 for CN1CCN(C(=O)Nc2cc(Cl)nc(Cl)c2)CC1 at or above 4?
Reply: 0

Task item: Is pEC50 for Cc1cc(NC(=O)Nc2cc(Cl)nc(Cl)c2)cc(C)n1 at or above 4?
Reply: 0

Task item: Is pEC50 for O=C(NNc1nc(N2CCOCC2)c2ccn(C3CC3)c2n1)Nc1cc(Cl)nc(Cl)c1 at or above 4?
Reply: 0

Task item: Is pEC50 for COc1c(Cl)cc(NC(=O)Nc2cc(Cl)nc(Cl)c2)cc1Cl at or above 4?
Reply: 1

Task item: Is pEC50 for COc1cc(NC(=O)Nc2cc(Cl)nc(Cl)c2)cc(Cl)n1 at or above 4?
Reply: 1

Task item: Is pEC50 for O=c1[nH]cc(F)c(=O)[nH]1 at or above 4?
Reply: 0

Task item: Is pEC50 for O=C(Nc1cc(Cl)nc(Cl)c1)Nc1cc(Cl)nc(Cl)c1 at or above 4?
Reply: 1

Task item: Is pEC50 for O=C(Nc1ccnc(Cl)c1)Nc1cc(Cl)nc(Cl)c1 at or above 4?
Reply: 1

Task item: Is pEC50 for Cc1cc(NC(=O)Nc2cc(Cl)nc(Cl)c2)n(C)n1 at or above 4?
Reply: 1

Task item: Is pEC50 for Cc1nn(C)c2nc(NNC(=O)Nc3cc(Cl)nc(Cl)c3)cc(C(C)C)c12 at or above 4?
Reply: 1

====

# System: NCM460
# test.protocol: Cytotoxicity against human NCM460 cells assessed as cell viability measured after 72 hrs in presence of 5-FU by MTT assay
# Format: cell-based
# reported.conditions: NCM460, 72 h
For each record, write down the corresponding pEC50.
Convention used: pEC50 is expressed as -log10 of the molar concentration.

Task item: Let me know recorded pEC50 for Cc1nn(C)c2nc(NNC(=O)Nc3cc(Cl)nc(Cl)c3)cc(C(C)C)c12 , thanks.
Reply: 4.21

Task item: Let me know recorded pEC50 for O=C(Nc1cc(Cl)cc(Cl)c1)Nc1cc(Cl)nc(Cl)c1 , thanks.
Reply: 4.26

Task item: Let me know recorded pEC50 for CC(C)Oc1cc(NC(=O)Nc2cc(Cl)nc(Cl)c2)cc(Cl)n1 , thanks.
Reply: 4.68

Task item: Let me know recorded pEC50 for O=C(NNc1nc(N2CCOCC2)c2ccn(C3CC3)c2n1)Nc1cc(Cl)nc(Cl)c1 , thanks.
Reply: 3.26

Task item: Let me know recorded pEC50 for O=C(Nc1cc(Cl)nc(Cl)c1)Nc1cc2ccccn2n1 , thanks.
Reply: 4.99

Task item: Let me know recorded pEC50 for CN1CCN(C(=O)Nc2cc(Cl)nc(Cl)c2)CC1 , thanks.
Reply: 3.28

Task item: Let me know recorded pEC50 for O=C(Nc1cc(Cl)nc(Cl)c1)Nc1cc(Cl)nc(OC2CCCC2)c1 , thanks.
Reply: 4.67

Task item: Let me know recorded pEC50 for CNc1cc(C)nc(NNC(=O)Nc2cc(Cl)nc(Cl)c2)n1 , thanks.
Reply: 4.19

Task item: Let me know recorded pEC50 for CN(C)c1nc(NNC(=O)Nc2cc(Cl)nc(Cl)c2)nc2c1ccn2C , thanks.
Reply: 4.23

Task item: Let me know recorded pEC50 for COc1c(Cl)cc(NC(=O)Nc2cc(Cl)nc(Cl)c2)cc1Cl , thanks.
Reply: 4.56

Task item: Let me know recorded pEC50 for O=C(Nc1cc(Cl)nc(Cl)c1)Nc1cc(Cl)nc(Cl)c1 , thanks.
Reply: 5.03

Task item: Let me know recorded pEC50 for Cn1ccc2c(-c3ccccc3)nc(NNC(=O)Nc3cc(Cl)nc(Cl)c3)nc21 , thanks.
Reply: 3.17

Task item: Let me know recorded pEC50 for CCOc1cc(NC(=O)Nc2cc(Cl)nc(Cl)c2)cc(Cl)n1 , thanks.
Reply: 4.60

Task item: Let me know recorded pEC50 for COc1ccc(-c2ccc3cc(NC(=O)Nc4cc(Cl)nc(Cl)c4)nn3c2)cc1 , thanks.
Reply: 5.08

Task item: Let me know recorded pEC50 for Cc1cc(NC(=O)Nc2cc(Cl)nc(Cl)c2)cc(C)n1 , thanks.
Reply: 3.24

Source listed as ChEMBL document CHEMBL4842358.
